The values you see were collected from the supplement of paper PMC9732359.

Assay: protein stability index of a GFP-peptide fusion (yeast GPS) (PSI 1-4); higher = more stable; sorted into four equal gates, so the index is relative within each strain
Details: san1∆
protein stability index of 3 or higher: true (1). Under 3: false (0).

- KTVPFQVNQLQRILEVL [SSN3]: false (0)
- TKLIQYEHNGRTLEAIT [CSL4]: false (0)
- RNEEILRDIGECENEIK [SMC2]: false (0)
- NEKKTETNAKPFSFSSA [YLR335W/NUP2]: true (1)
- TFAQEKLNTFENDLLQE [SMC3]: true (1)
- LLLAAQIVSYCSNNKNS [SSN2]: false (0)
- LKENAGSLTFLDNKGSG [YIL149C/MLP2]: true (1)
- PLAAGNFVSEKGDLRRG [RPC53]: true (1)
- EAKERYTDRDQDEVNKG [NNF1]: true (1)
- SNGPRAAKKRRPAAKGK [RRP6]: true (1)
- RLDNLQDIKKAKRVENF [DSN1]: false (0)
- TVMYQRRSKMNPLWNAI [PRE4]: false (0)
- YGHVFLGITGLATDVTT [PUP3]: false (0)
- TSSKSSSLSAIIVFGYP [YDL088C/ASM4]: false (0)
- LKTLTHKQIHTTIFVKS [POP7]: false (0)
- KKLESQESLVKLFTTNE [RPN5]: true (1)
- NESSLALEFVSLLLSSV [SRB4]: false (0)
- SAFKFIHTQLSEIKQQI [YJL039C/NUP192]: false (0)
- DLQYLGEFSGKNFSPTK [RRP6]: true (1)
- FVDDTNVYRVTVHKTFE [PRP8]: false (0)
